// reported −lg Kd (X − M-β-CD) per item
# protocol-description: Dissociation constants of complexes with M-β-CD by FTIR spectroscopy (Hill fit)
# Type: physicochemical
# applied-conditions: X-PPh3, complex 1:1 molar ratio, PBS
readout-kind: −lg Kd (X − M-β-CD)

>>> print(df.to_string())
                           substance_smiles         readout_kind     result
0  COc1cc(CCC[P+](c2ccccc2)(c2ccccc2)c2ccccc2)cc2c1OCO2  −lg Kd (X − M-β-CD)  3.0 ± 0.3
1  COc1c(CCC[P+](c2ccccc2)(c2ccccc2)c2ccccc2)cc2c(c1OC)OCO2  −lg Kd (X − M-β-CD)  2.6 ± 0.2
2  COc1cc(CCC[P+](c2ccccc2)(c2ccccc2)c2ccccc2)c(OC)c2c1OCO2  −lg Kd (X − M-β-CD)  2.9 ± 0.3
3  COc1cc(CCC[P+](c2ccccc2)(c2ccccc2)c2ccccc2)c(OC)c(OC)c1OC  −lg Kd (X − M-β-CD)  3.1 ± 0.2
